# Test system: Ub-PCNA levels in the nucleus of ES2 cells (USP1 activity)
# Assay: ES2 Ub-PCNA immunofluorescence (IF) assay
# Assay type: cell-based
# Particulars: Homo sapiens, ES-2; ES2 cells, 3 hours, Ub-PCNA immunofluorescence; read-out: USP1 IC50 (Ub-PCNA)
IC50 listing for selected compounds.

Sample answers from the record:
| Compound | Assay system | Readout label | Measured result |
| --- | --- | --- | --- |
| CCn1cc(C#N)nc1-c1ccc(NC2CCCn3nc(-c4c(Cl)cnn4C(C)C)cc32)cc1 (stereo not shown) | Ub-PCNA levels in the nucleus of ES2 cells (USP1 activity) | IC50 | 100 to 500 nM |
| COc1ncnc(C2CC2)c1-c1nc2n(n1)CCC(=O)N2[C@H](C)c1ccc(-n2nc(C(F)(F)F)cc2C)c(F)c1 | Ub-PCNA levels in the nucleus of ES2 cells (USP1 activity) | IC50 | < 100 nM |
| COc1ncnc(C2CC2)c1-c1cc2n(n1)CCCN2Cc1ccc(-c2nc(C(F)(F)F)cn2C(C)C)c(F)c1 | Ub-PCNA levels in the nucleus of ES2 cells (USP1 activity) | IC50 | < 100 nM |
| CC(C)n1ncc(Cl)c1-c1cc2n(n1)CCCN2Cc1ccc(-c2nc(C(F)(F)F)cn2CCF)cc1 | Ub-PCNA levels in the nucleus of ES2 cells (USP1 activity) | IC50 | < 100 nM |
| CCn1cc(C(F)(F)F)nc1-c1ccc(CN2C(=O)C(C)Cn3nc(-c4c(OC)ncnc4C4CC4)nc32)cc1F (stereo not shown) | Ub-PCNA levels in the nucleus of ES2 cells (USP1 activity) | IC50 | < 100 nM |

For the compound COc1ncnc(C2CC2)c1-c1cc2n(n1)CCC(=O)N2Cc1ccc(-c2nc(C(F)(F)F)cn2C)cc1 , what IC50 is on record?
100 to 500 nM

Consider the compound COc1ncnc(C2CC2)c1-c1cc2n(n1)CCCN2Cc1ccc(-c2nc(C(F)(F)F)cn2C)cc1 and give its measured IC50.
< 100 nM

====

# Assay: Liver microsomal metabolic stability, rat liver microsomes (RLM)
# Particulars: rat, liver microsomes, t1/2 (min) in RLM, 1 μM compound, 1 mg/mL microsomes, NADPH
Readout label: half-life at 1 μM

| Molecule | Measured result |
| --- | --- |
| CC(C)n1cc(C(F)(F)F)nc1-c1ccc([C@@H](C)N2C(=O)CCn3nc(-c4c(Cl)cnn4C(C)C)nc32)cc1 [Example 178] | < 25 min |
| CC(C)n1ncc(Cl)c1-c1nc2n(n1)CCC(=O)N2Cc1ccc(-c2nc(C(F)(F)F)cn2C)cc1 [Example 39] | > 25 min |
| Cc1cn(C)nc1-c1ccc(CN2C(=O)CCn3nc(-c4c(Cl)cnn4C(C)C)cc32)cc1 [Example 93] | < 25 min |

From here, focus on the item given below.
Give the measured half-life at 1 μM of CC(C)Oc1cccnc1-c1ccc(CN2C(=O)CCn3nc(-c4c(Cl)cnn4C(C)C)cc32)cc1 [Example 291] .
< 25 min

====

# Test system: Ub-PCNA levels in the nucleus of ES2 cells (USP1 activity)
# Assay: ES2 Ub-PCNA immunofluorescence (IF) assay
# Format: cell-based
# Particulars: Homo sapiens, ES-2; ES2 cells, 3 hours, Ub-PCNA immunofluorescence; read-out: USP1 IC50 (Ub-PCNA)
pIC50: −log10 of the molar value.
Readout label: pIC50

These recorded examples may help you get a feel for the data.
| Molecule | pIC50 |
| --- | --- |
| COc1cc(C(F)(F)F)nn1-c1ccc(CN2C(=O)CCn3nc(-c4c(Cl)cnn4C(C)C)cc32)cc1F | > 7.00 |
| CCn1cc(C(F)(F)F)nc1-c1ccc(N[C@@H]2CCCn3nc(-c4c(Cl)cnn4C(C)C)cc32)cc1 (single isomer, unassigned) | > 7.00 |
| CC(C)Oc1cccnc1-c1ccc(CN2C(=O)CCn3nc(-c4c(Cl)cnn4C(C)C)cc32)cc1 | 6.30 to 7.00 |

I have this molecule here, CC(C)n1cc(C(F)(F)F)nc1-c1ccc(CN2C(=O)CCn3nc(-c4c(Cl)cnn4C(C)C)cc32)cc1F , and I need its recorded pIC50.
> 7.00
